Taken from patent US8404680B2.

target: BACE1 (Homo sapiens); construct: Human HEK293 cells which are stably transfected with a vector expressing a cDNA of the human APP wt gene (APP695); endogenous in cells; assay: Cellular Aβ-lowering assay; conditions: human HEK293 cells stably expressing human APP wt (APP695); Aβ40 in supernatant by ELISA after 18-20 hrs
pIC50: −log10 of the molar value.
Recorded pIC50, one value per entry.
PROPERTY: pIC50

COMPOUND STRING: C[C@]1(c2cc(NC(=O)c3ncc(C#N)cc3Cl)ccc2F)N=C(N)O[C@@H]2COC[C@@H]21
RECORDED NUMBER: 9.00

COMPOUND STRING: C[C@]1(c2cc(NC(=O)c3ccc(Cl)cn3)ccc2F)N=C(N)O[C@@H]2COC[C@@H]21
RECORDED NUMBER: 9.15

COMPOUND STRING: N#Cc1ccc(C(=O)Nc2ccc(F)c([C@@]3(CF)N=C(N)O[C@@H]4COC[C@@H]43)c2)nc1
RECORDED NUMBER: 9.00

COMPOUND STRING: NC1=N[C@](CF)(c2cc(NC(=O)c3ccc(F)cn3)ccc2F)[C@H]2COC[C@H]2O1
RECORDED NUMBER: 8.60

###

Recorded log10(IC50), one value per entry.
Molecular target: BACE1 (Homo sapiens, UniProt P56817)
Construct: Human HEK293 cells which are stably transfected with a vector expressing a cDNA of the human APP wt gene (APP695); endogenous in cells
Sequence (P56817 46-501): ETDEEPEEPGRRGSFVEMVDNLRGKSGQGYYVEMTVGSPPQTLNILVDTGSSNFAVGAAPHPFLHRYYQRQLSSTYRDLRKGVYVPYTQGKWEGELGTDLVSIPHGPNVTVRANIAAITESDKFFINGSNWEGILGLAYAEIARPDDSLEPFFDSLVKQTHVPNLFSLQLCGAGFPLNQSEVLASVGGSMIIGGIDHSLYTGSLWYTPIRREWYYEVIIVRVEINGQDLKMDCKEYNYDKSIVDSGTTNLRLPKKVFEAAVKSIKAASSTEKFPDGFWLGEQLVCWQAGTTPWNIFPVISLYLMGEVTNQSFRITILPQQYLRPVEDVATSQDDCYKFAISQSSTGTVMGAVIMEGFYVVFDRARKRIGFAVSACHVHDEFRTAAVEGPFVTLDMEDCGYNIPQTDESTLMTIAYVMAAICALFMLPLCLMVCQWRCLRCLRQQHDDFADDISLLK
Assay: Cellular Aβ-lowering assay
Details: human HEK293 cells stably expressing human APP wt (APP695); Aβ40 in supernatant by ELISA after 18-20 hrs
Method: Cellular Aβ-Lowering Assay: Human HEK293 cells which are stably transfected with a vector expressing a cDNA of the human APP wt gene (APP695) were used to assess the potency of the compounds in a cellular assay. […] After stopping the reaction with one volume 1 NH2SO4 the reaction was measured in an ELISA reader at 450 nm wavelength. The concentrations of Aβ in the culture supernatants were calculated from a standard curve obtained with known amounts of pure Aβ peptide.
PROPERTY: log10(IC50) (log10 of the value in nM)

MOLECULE: C[C@]1(c2cc(NC(=O)c3ccc(C#N)cn3)ccc2F)N=C(N)O[C@]2(C(F)(F)F)COC[C@H]12 (relative stereo) [Example 19]
PROPERTY: log10(IC50)
RECORDED NUMBER: 0.95
--
MOLECULE: C[C@]1(c2cc(NC(=O)c3cnc(OCC(F)(F)F)cn3)ccc2F)N=C(N)O[C@@H]2COC[C@@H]21
PROPERTY: log10(IC50)
RECORDED NUMBER: 0.26
--
MOLECULE: NC1=N[C@](CF)(c2cc(NC(=O)c3ccc(Cl)cn3)ccc2F)[C@H]2COC[C@H]2O1
PROPERTY: log10(IC50)
RECORDED NUMBER: 0.00
--
MOLECULE: CC#CCOc1ccc(C(=O)Nc2ccc(F)c([C@@]3(C)N=C(N)O[C@@H]4COC[C@@H]43)c2)nc1
PROPERTY: log10(IC50)
RECORDED NUMBER: -1.00
--
MOLECULE: CC#CCOc1cnc(C(=O)Nc2ccc(F)c([C@@]3(C)N=C(N)O[C@]4(C(F)(F)F)COC[C@H]34)c2)cn1 (relative stereo)
PROPERTY: log10(IC50)
RECORDED NUMBER: 0.85
--
MOLECULE: C[C@]1(c2cc(NC(=O)c3ccc(F)cn3)ccc2F)N=C(N)O[C@@H]2COC[C@@H]21
PROPERTY: log10(IC50)
RECORDED NUMBER: 0.40
--
MOLECULE: NC1=N[C@@](c2cc(NC(=O)c3ccc(Cl)cn3)ccc2F)(C(F)F)[C@H]2COC[C@H]2O1
PROPERTY: log10(IC50)
RECORDED NUMBER: 0.74
--
MOLECULE: C[C@]1(c2cc(NC(=O)c3ccc(C#N)cn3)ccc2F)N=C(N)O[C@]2(C(F)(F)F)COC[C@H]12 (racemic) [Example 22]
PROPERTY: log10(IC50)
RECORDED NUMBER: 0.85
--
MOLECULE: C[C@]1(c2cc(NC(=O)c3ccc(OCC(F)(F)F)cn3)ccc2F)N=C(N)O[C@@H]2COC[C@@H]21
PROPERTY: log10(IC50)
RECORDED NUMBER: 0.78
--
MOLECULE: C[C@]1(c2cc(NC(=O)c3ccc(OCC(F)(F)C(F)F)cn3)ccc2F)N=C(N)O[C@@H]2COC[C@@H]21
PROPERTY: log10(IC50)
RECORDED NUMBER: 0.70
--
MOLECULE: C[C@]1(c2cc(NC(=O)c3ccc(Cl)cn3)ccc2F)N=C(N)O[C@]2(C(F)(F)F)COC[C@H]12 (racemic)
PROPERTY: log10(IC50)
RECORDED NUMBER: 1.53
--
MOLECULE: C[C@]1(c2cc(NC(=O)c3ccc(OCC4CC4)cn3)ccc2F)N=C(N)O[C@@H]2COC[C@@H]21
PROPERTY: log10(IC50)
RECORDED NUMBER: 0.70
--
MOLECULE: C[C@]1(c2cc(NC(=O)c3ncc(Cl)cc3Cl)ccc2F)N=C(N)O[C@@H]2COC[C@@H]21
PROPERTY: log10(IC50)
RECORDED NUMBER: -0.10
--
MOLECULE: C[C@]1(c2cc(NC(=O)c3ccccn3)ccc2F)N=C(N)O[C@@H]2COC[C@@H]21
PROPERTY: log10(IC50)
RECORDED NUMBER: 0.90
